System: LOX IMVI melanoma
Assay: NCI tumour cell line growth inhibition, 48 h; in the data active means GI50 below about 0.43 µM; inactive means the rest
Outcome (select one): 1 (active), 0 (inactive)

Before answering, review these 5 worked examples.
C=CC[P+](c1ccccc1)(c1ccccc1)c1ccccc1: 0
Cc1cc(C2=NNC(=O)Cc3cc4c(cc32)OCCO4)cc(C)c1N: 0
CC1CCN(CCCCCOc2ccc3oc4cc(Cl)ccc4c(=O)c3c2)CC1: 0
O=C(CCCN1CCOCC1)Nc1ccc(Cn2nnc3c2C(=O)c2nnn(Cc4ccc(NC(=O)CCCN5CCOCC5)cc4)c2C3=O)cc1: 0
Cn1cc(C2=C(c3cccnc3)C(=O)NC2=O)c2ccccc21: 0

Task: I'd appreciate the recorded outcome for "CC(=O)O[C@H](C[C@H](C(C)C)N(C)C(=O)[C@@H](NC(=O)[C@H]1CCCCN1C)C(C)C)c1nc(C(=O)N[C@@H](Cc2ccccc2)C[C@H](C)C(=O)O)c(C(C)C)s1" from this test.
Output: 1

Task: Now this one: "CC(=O)OCC(=O)O[C@@H]1C[C@]2(C(C)C)O[C@@]1(C)[C@@H]1CC[C@@H](C)[C@H]1[C@@H]2OC(=O)/C=C/c1ccccc1"
Output: 0

Task: Please do the same for "Cc1cnc(/C=N\NC(N)=S)c2cccc(N)c12" as well.
Output: 0

Task: What do we get for "CC(C)(C)c1[nH]cnc1/C=c1\[nH]c(=O)/c(=C/c2ccccc2)[nH]c1=O" ?
Output: 1

Task: Note, next up: COc1ccc(C2=NN(C(=O)c3cc(OC)c(OC)c(OC)c3)C(c3ccc(Cl)cc3)C2)cc1OC (configuration not stated)
Output: 0

Task: Try this molecule too: "CO/N=C(\C)c1cccc(Nc2cc(-c3ccccc3)nc3c(O)cccc23)c1"
Output: 0

Task: Queued: "COC(=O)c1ccc(NC(=O)Nc2ccc3oc(=O)c4ccccc4c3c2)cc1"
Output: 0
